# Target Of Assay: human PAR2 receptor (Homo sapiens)
# Construct: expressed in transfected cells; host or cells: 1321N1 cells
# Sequence (P55085 26-397): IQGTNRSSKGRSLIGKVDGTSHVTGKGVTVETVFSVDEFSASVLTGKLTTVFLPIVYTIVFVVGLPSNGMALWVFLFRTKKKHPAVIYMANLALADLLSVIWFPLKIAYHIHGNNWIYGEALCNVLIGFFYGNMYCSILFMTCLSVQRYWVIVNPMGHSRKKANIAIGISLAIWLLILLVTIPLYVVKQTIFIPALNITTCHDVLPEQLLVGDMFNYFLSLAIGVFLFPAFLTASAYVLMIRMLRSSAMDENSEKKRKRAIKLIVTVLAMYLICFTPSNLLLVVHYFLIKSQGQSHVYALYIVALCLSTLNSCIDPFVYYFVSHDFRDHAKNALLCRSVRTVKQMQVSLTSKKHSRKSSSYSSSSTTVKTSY
# Assay Protocol: PAR2 antagonist activity, calcium flux FLIPR assay (trypsin challenge)
# Assay type: cell-based
# Condition Summary: 1321N1 cells transfected with the human PAR2 receptor; trypsin (EC50 concentration) challenge; calcium flux FLIPR; read-out: PAR2 IC50
Where a name gives a salt, the structure may show the parent alone.
Quick reference for IC50 among some molecules

Known results for molecules:
* NCc1ccc(CNC(=O)N2CCC(C(=O)N3CCCCC3)CC2)cc1 [Example 31, hydrochloride] | 50 to 100 µM
* NCc1ccc(CNC(=O)N2CCC(Oc3ccccc3Cl)CC2)cc1 [Example 13, hydrochloride] | 20 to 50 µM
* NCc1ccc(CNC(=O)N2CCC(Oc3cccc(Cl)c3)CC2)cc1 [Example 14, hydrochloride] | 20 to 50 µM
* NCc1ccc(CNC(=O)N2CCC(Cc3ccncc3)CC2)cc1 | 5 to 20 µM

query: Please report IC50 for the following molecule: NCc1ccc(CNC(=O)N2CCC(Oc3ccc(Cl)cc3)CC2)cc1 [Example 15, hydrochloride]
result: 20 to 50 µM

query: For the molecule `NCCCCCNC(=O)N1CCC(Cc2ccccc2)CC1` , report IC50.
result: 20 to 50 µM

query: Provide only the value of recorded IC50 for `CN(Cc1ccc(CN)cc1)C(=O)N1CCC(Cc2ccccc2)CC1`
result: 50 to 100 µM

query: Read the entry `NCc1ccc(CNC(=O)N2CCC(Cc3ccccc3)CC2)cc1F` and write its reported IC50.
result: < 5 µM

query: State its IC50: NCc1ccc(CNC(=O)N2CCC(Cc3ccccc3)C2)cc1 (stereo not shown)
result: 20 to 50 µM

---

// values below are reported pIC50
# Target Of Assay: human PAR2 receptor (Homo sapiens, UniProt P55085)
# Construct: expressed in transfected cells; host or cells: 1321N1 cells
# Sequence (P55085 26-397): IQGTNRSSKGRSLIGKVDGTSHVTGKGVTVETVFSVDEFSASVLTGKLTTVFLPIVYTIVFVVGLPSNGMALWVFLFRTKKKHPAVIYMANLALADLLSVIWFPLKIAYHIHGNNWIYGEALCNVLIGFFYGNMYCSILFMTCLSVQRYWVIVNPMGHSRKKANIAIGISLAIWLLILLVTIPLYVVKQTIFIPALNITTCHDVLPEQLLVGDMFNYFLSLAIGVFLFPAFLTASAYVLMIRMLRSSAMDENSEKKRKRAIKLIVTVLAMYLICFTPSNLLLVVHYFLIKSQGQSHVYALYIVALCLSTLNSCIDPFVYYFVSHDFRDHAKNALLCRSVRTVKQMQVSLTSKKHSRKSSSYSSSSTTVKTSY
# Assay Protocol: PAR2 antagonist activity, calcium flux FLIPR assay (trypsin challenge)
# Assay type: cell-based
# Condition Summary: 1321N1 cells transfected with the human PAR2 receptor; trypsin (EC50 concentration) challenge; calcium flux FLIPR; read-out: PAR2 IC50
# Excerpt: The PAR2 receptor couples through the Gq signaling pathway and results in activation of calcium mobilization. The functional activity of test compounds was routinely tested by measuring the ability of compounds to antagonize PAR2 (trypsin challenge) activity in a dose dependent manner, in 1321N1 cells transfected with the human PAR2 receptor, using a calcium flux Fluorescent Imaging Plate Reader FLIPR assay. […]
pIC50: −log10 of the molar value. Structures can show the parent of a compound that is named as a salt.

Look over these answered cases.
* COc1ccc(CC2CCN(C(=O)NCc3ccc(CN)cc3)CC2)cc1 | > 5.30
* NCc1ccc(CNC(=O)N2CCC(Cc3ccc(F)cc3)CC2)cc1 [Example 5, hydrochloride] | > 5.30
* N=C(N)c1ccc(CNC(=O)N2CCC(Cc3ccccc3)CC2)cn1 [Example 50, hydrochloride] | > 5.30
* N=C(N)c1ccc(CNC(=O)C2CCN(Cc3ccccc3)CC2)cc1 [Example 44, dihydrochloride] | 4.70 to 5.30
* Cc1ccc(CC2CCN(C(=O)NCc3ccc(CN)cc3)CC2)cc1 | 4.70 to 5.30

Now for a further compound.
query: Determine its reported pIC50: `NCc1ccc(CNC(=O)N2CCC(C(=O)c3ccc(F)cc3)CC2)cc1`
result: 4.70 to 5.30
